EXPERIMENTAL TARGET: human TLR7 (Homo sapiens)
Sequence (Q9NYK1 27-1049): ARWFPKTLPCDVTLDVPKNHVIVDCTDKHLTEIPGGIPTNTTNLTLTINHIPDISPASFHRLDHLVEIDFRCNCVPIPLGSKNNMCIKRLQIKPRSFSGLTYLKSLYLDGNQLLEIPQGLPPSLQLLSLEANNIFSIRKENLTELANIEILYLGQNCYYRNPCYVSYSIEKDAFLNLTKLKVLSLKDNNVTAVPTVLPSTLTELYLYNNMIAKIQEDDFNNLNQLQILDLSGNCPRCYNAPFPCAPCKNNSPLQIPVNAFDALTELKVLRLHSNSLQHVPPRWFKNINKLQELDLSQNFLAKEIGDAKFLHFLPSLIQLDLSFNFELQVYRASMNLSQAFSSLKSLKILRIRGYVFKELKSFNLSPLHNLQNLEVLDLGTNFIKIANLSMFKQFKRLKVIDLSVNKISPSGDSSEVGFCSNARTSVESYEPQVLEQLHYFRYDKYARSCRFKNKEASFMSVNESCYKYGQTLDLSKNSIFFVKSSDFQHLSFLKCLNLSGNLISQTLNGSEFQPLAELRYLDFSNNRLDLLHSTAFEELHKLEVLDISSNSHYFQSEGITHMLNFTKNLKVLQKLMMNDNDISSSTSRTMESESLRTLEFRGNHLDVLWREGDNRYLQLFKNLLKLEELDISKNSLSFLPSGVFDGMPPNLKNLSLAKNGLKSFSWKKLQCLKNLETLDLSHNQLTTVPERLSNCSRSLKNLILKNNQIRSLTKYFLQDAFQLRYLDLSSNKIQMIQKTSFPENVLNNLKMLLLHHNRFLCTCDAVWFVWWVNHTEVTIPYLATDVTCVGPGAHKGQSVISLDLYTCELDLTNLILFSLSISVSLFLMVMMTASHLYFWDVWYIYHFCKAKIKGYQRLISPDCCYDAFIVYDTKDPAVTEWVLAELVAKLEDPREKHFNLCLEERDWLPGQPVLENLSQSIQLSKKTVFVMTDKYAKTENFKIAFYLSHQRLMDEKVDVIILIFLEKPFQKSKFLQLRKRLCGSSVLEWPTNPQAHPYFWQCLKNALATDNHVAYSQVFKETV
ASSAY PROCEDURE: HEK293 NFKB reporter assay, human TLR7
EXPERIMENTAL SETUP: HEK293 NFKB reporter cells expressing human TLR7; read-out: HEK293 hTLR7 EC50
READOUT KIND: pEC50
By convention, pEC50 is the negative base-10 log of a molar concentration.

Query: Can you look up pEC50 on human TLR7 (Homo sapiens) for CCCN(OCC)C(=O)C1=Cc2sc(CN3CCNC(=O)C3)cc2N=C(N)C1 ?
Result: 5.47

Query: Can you look up pEC50 on human TLR7 (Homo sapiens) for CCCN(CCC)C(=O)C1=Cc2sc(CNC(=O)CNC(=O)OC(C)(C)C)cc2N=C(N)C1 ?
Result: 5.35

Query: Can you look up pEC50 on human TLR7 (Homo sapiens) for CCCN(CC1CC1)C(=O)C1=Cc2sc(CCCCCNC(=O)OC(C)(C)C)cc2N=C(N)C1 ?
Result: 5.57
